Data provenance: PubChem BioAssay AID1159580

Assay: chemical genetic growth profiling, strain panel (AID 1159580);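 further: tested at 20 µM; growth read once vehicle control cultures reached saturation at 30 °C; 1 = growth at the plate median or of vehicle wells; lower values mean less growth of the strain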
Details: S. cerevisiae deletion strains, growth OD, locus YNL307C, strain MCK1, hits give low values
Hit rate of the full screen: of about 5,500 compounds, about 2,000 (36%) were called active. Roughly 18% stayed inconclusive and do not appear here. The list shows a part of the results.
Measured normalized growth by item
Returns: the value as a bare number; no unit string appended.

- COMPOUND: "COc1ccc2cc([C@H](C)CO)ccc2c1"
  normalized growth: 0.97
- COMPOUND: "COc1cc(NS(=O)(=O)c2ccc(N)cc2)nc(OC)n1"
  normalized growth: 0.981
- COMPOUND: "COc1ccc2c(c1OC)C(=O)O[C@H]2[C@H]1c2cc3c(cc2CCN1C)OCO3"
  normalized growth: 1.01
- COMPOUND: "CN1CCC(=C2c3ccccc3CC(=O)c3sccc32)CC1"
  normalized growth: 1
- COMPOUND: "C[C@H]1CC2C([C@@H](O)C[C@@]3(C)C2CC[C@]3(O)C(=O)CO)[C@@]2(C)C=CC(=O)C=C12 (stereo partly specified)"
  normalized growth: 1.02

Ask: Any idea what its normalized growth is? The compound is `CN(C)C(=S)SSC(=S)N(C)C`
Reply: 0.0687

###

Test: chemical genetic growth profiling, strain panel (AID 1159580)
Details: S. cerevisiae deletion strains, growth OD, locus YOR231W, strain MKK1
Screen size: about 5,500 compounds; about 2,000 (36%) were called active. Inconclusive results (about 18%) are left out. No stated cut-off is given here; in the data, active means normalized growth mostly below about 0.91 (no sharp cut-off); inconclusive means no clear call, values can overlap the other calls; inactive means mostly above about 0.92. Some of the results follow.
Bench note: report the call from active, inactive

Worked examples, 5 compounds total:
- COMPOUND: "COc1ccc2c(c1OC)C(=O)O[C@H]2[C@H]1c2cc3c(cc2CCN1C)OCO3"
  ASSIGNED_CLASS: "inactive"
- COMPOUND: "COc1cc(NS(=O)(=O)c2ccc(N)cc2)nc(OC)n1"
  ASSIGNED_CLASS: "inactive"
- COMPOUND: "S=C(Nc1ccc(Cl)cc1Cl)N(c1cccc(Cl)c1)c1nc2ccccc2s1"
  ASSIGNED_CLASS: "inactive"
- COMPOUND: "CN[C@@H](C)[C@@H](O)c1ccccc1"
  ASSIGNED_CLASS: "inactive"
- COMPOUND: "Cc1c(Cc2ccc(F)cc2)c(=O)oc2cc(O)ccc12"
  ASSIGNED_CLASS: "inactive"

Ask: What did this assay record as the result for `COc1ccc2cc([C@H](C)CO)ccc2c1` ?
Reply: inactive

Ask: Each compound tested received a call. Report the one for CCN(CC)CCCC(C)Nc1ccnc2cc(Cl)ccc12 (stereo not given) .
Reply: inactive

Ask: Assay outcome for CCC(=O)O[C@H]1CCC2C3CCC4=CC(=O)CC[C@]4(C)C3CC[C@@]21C (stereo not given in full) : what was it?
Reply: inactive

Ask: Could you please tell me the result logged for `c1ccc(N=Nc2ccccc2)cc1` in this assay?
Reply: inactive

Ask: In this assay, the call recorded for `COc1cc(O)c(C(=O)/C=C/c2ccc(OC)c(O)c2)c(OC)c1` was what?
Reply: inactive

###

Assay: chemical genetic growth profiling, strain panel (AID 1159580)
Conditions: S. cerevisiae deletion strains, growth OD, locus YOR231W, strain MKK1
Out of some 5,500 compounds screened, about 2,000 (36%) were called active. Roughly 18% stayed inconclusive and do not appear here. Rule as the data show it: active = normalized growth mostly below about 0.91 (no sharp cut-off); inconclusive = no clear call, values can overlap the other calls; inactive = mostly above about 0.92. Some of the results follow.
Mark one answer only. Choices: y (active), n (inactive)

Ask: Identify the outcome logged in this assay for the molecule shown: CC[N+](C)(CC)CCOC(=O)C(O)(c1ccccc1)C1CCCCC1 (stereo unspecified)
Reply: n

Ask: What was the test verdict on `Cc1ccccc1C(=O)Oc1ccc(C(F)(F)F)cc1[N+](=O)[O-]` ?
Reply: n

Ask: Record lookup: outcome of this test for c1cncc(C2CCCCN2)c1 (stereo unspecified) ?
Reply: n

Ask: Lab log entry: `O=C(Oc1ccc(C(F)(F)F)cc1[N+](=O)[O-])c1cccc(Cl)c1` — outcome as called in the assay?
Reply: y

Ask: Kindly provide the recorded test outcome for the following molecule: `O=S(=O)(Nc1cccc(CCc2ccccn2)c1)c1cc(Cl)c(Cl)cc1Cl`
Reply: n

Ask: What call does the record list for `O=S(=O)(Nc1cccc2nsnc12)c1cc(Cl)sc1Cl` ?
Reply: n

###

Assay: chemical genetic growth profiling, strain panel (AID 1159580)
Details: S. cerevisiae deletion strains, growth OD, locus YLR113W, strain HOG1
Hit rate of the full screen: of about 5,500 compounds, about 2,000 (36%) were called active. Roughly 18% stayed inconclusive and do not appear here. Rule as the data show it: active = normalized growth mostly below about 0.91 (no sharp cut-off); inconclusive = no clear call, values can overlap the other calls; inactive = mostly above about 0.92. Some of the results follow.
Just give me one of these, please: active, inactive

- COMPOUND: "CCN(CC)CCCC(C)Nc1c2ccc(Cl)cc2nc2ccc(OC)cc12 (stereo unspecified)"
  ASSIGNED_CLASS: "active"

Ask: So what was the verdict on `Cc1cc(O)c(C)c(O)c1C(=O)O` in this test?
Reply: inactive

###

Assay: chemical genetic growth profiling, strain panel (AID 1159580);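 further: tested at 20 µM; growth read once vehicle control cultures reached saturation at 30 °C; 1 = growth at the plate median or of vehicle wells; lower values mean less growth of the strain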
Details: S. cerevisiae deletion strains, growth OD, locus YLR357W, strain rsc2
Screen size: about 5,500 compounds; about 2,000 (36%) were called active. Roughly 18% stayed inconclusive and do not appear here. No stated cut-off is given here; in the data, active means normalized growth mostly below about 0.91 (no sharp cut-off); inconclusive means no clear call, values can overlap the other calls; inactive means mostly above about 0.92. Some of the results follow.
Tick one outcome: active, inactive

- MOLECULE: "CC(=O)OCC[N+](C)(C)C"
  ASSIGNED_CLASS: "inactive"
- MOLECULE: "CC(=O)[C@H]1CCC2C3CCC4=CC(=O)CC[C@]4(C)C3CC[C@@]21C (some centres not stated)"
  ASSIGNED_CLASS: "inactive"

Ask: For this molecule, state the assay outcome: `C[N+](C)(C)CCOC(N)=O`
Reply: inactive

Ask: Write down the call the test reported for this molecule. Item: `O=C(O)c1c2ccccc2cc2ccccc12`
Reply: inactive

Ask: Given `CCCCCCCCCCCCCCCC[N+](C)(C)C` , state the outcome it received in this test.
Reply: active

Ask: // return assay outcome for `CC1=C(/C=C/C(C)=C/C=C/C(C)=C/C=C/C=C(C)/C=C/C=C(C)/C=C/C(=O)[C@]2(C)C[C@@H](O)CC2(C)C)C(C)(C)C[C@H](O)C1`
Reply: inactive

###

Each entry below carries its recorded normalized growth.
Test: chemical genetic growth profiling, strain panel (AID 1159580);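 further: tested at 20 µM; growth read once vehicle control cultures reached saturation at 30 °C; 1 = growth at the plate median or of vehicle wells; lower values mean less growth of the strain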
Details: S. cerevisiae deletion strains, growth OD, locus YER133W, strain GLC7, hits give low values
In all, about 5,500 compounds went through this assay and about 2,000 (36%) were called active. About 18% were inconclusive and are not listed. This is one part of the list.

- COMPOUND: "COc1ccc(CN2CSC(=S)N(Cc3ccc(OC)cc3)C2)cc1"
  normalized growth: "0.946 (inactive)"
- COMPOUND: "Cc1cc(Cl)ccc1NNC(=O)c1snnc1C"
  normalized growth: "0.909 (inactive)"
- COMPOUND: "Cc1cc(Cl)ccc1NNC(=O)c1ccno1"
  normalized growth: "0.938 (inactive)"

Ask: Record request: normalized growth value, item `Cc1cc(C(=O)NNc2ccc(F)cc2F)no1`
Reply: 0.957 (inactive)

Ask: Look at this compound and give its reported normalized growth. `Cc1nnsc1C(=O)Nc1cc(C(F)(F)F)cc(C(F)(F)F)c1`
Reply: 1.01 (inactive)

Ask: I'd like to know its normalized growth. The compound in question is `Cc1cc(NNC(=O)c2ccccc2Cl)nc2c1c(C)nn2C`
Reply: 0.96 (inactive)

Ask: Given `O=S(=O)(Nc1cccc2nsnc12)c1cc(Cl)sc1Cl` , state its recorded normalized growth.
Reply: 0.938 (inactive)

Ask: // returns reported normalized growth for input `N#Cc1ccc(S(=O)(=O)Nc2ccccc2Oc2ccc(Cl)cc2Cl)cc1`
Reply: 0.928 (inactive)

Ask: Report normalized growth for `CC(=O)CSc1nnc(-c2ccc(C(C)(C)C)cc2)n1-c1ccc(Cl)cc1` please.
Reply: 0.969 (inactive)

Ask: Data request, read-out normalized growth, for Cc1ccc(OCC2SCCN2C(=O)c2ccc(C(F)(F)F)cc2)c([N+](=O)[O-])c1 (stereo unspecified)
Reply: 0.985 (inactive)

Ask: What does the record list as normalized growth for `COc1ccc(NNC(=O)c2sc3ccccc3c2Cl)cc1` ?
Reply: 0.663 (active)

###

Experiment: chemical genetic growth profiling, strain panel (AID 1159580);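 further: tested at 20 µM; growth read once vehicle control cultures reached saturation at 30 °C; 1 = growth at the plate median or of vehicle wells; lower values mean less growth of the strain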
Settings: S. cerevisiae deletion strains, growth OD, locus YDR052C, strain DBF4, hits give low values
Among all 5,500 compounds or so, about 2,000 (36%) were called active. Not shown: some 18% with an inconclusive outcome. The list shows a part of the results.
As shown below, each of these compounds has a reported normalized growth value.
Please give only the number in your answer, with no unit.

A selection of reference data follows.
- COMPOUND: "Cc1ccc(OCC2SCCN2C(=O)c2ccc(C(F)(F)F)cc2)c([N+](=O)[O-])c1 (stereo unspecified)"
  normalized growth: 1.02
- COMPOUND: "Cc1cc(C(=O)NNc2ccc(F)cc2F)no1"
  normalized growth: 0.963
- COMPOUND: "O=S(=O)(Nc1cccc2nsnc12)c1cc(Cl)sc1Cl"
  normalized growth: 0.955
- COMPOUND: "Cc1cc(NNC(=O)c2ccccc2Cl)nc2c1c(C)nn2C"
  normalized growth: 0.99
- COMPOUND: "CS(=NC(=O)c1cccc(Cl)c1)c1ccc(OC(=O)c2ccc(Cl)cc2)cc1 (stereo unspecified)"
  normalized growth: 0.954
- COMPOUND: "Nc1ccccc1SCc1c(Cl)cccc1Cl"
  normalized growth: 0.962

Next compound, please.
Ask: Please report the recorded normalized growth for `N#CC(C#N)=C(SCc1c(Cl)cccc1Cl)SCc1c(Cl)cccc1Cl` .
Reply: 0.99
